# Target Of Assay: full-length beta-Catenin (Uniprot ID P35222) (Homo sapiens (Human)) (UniProt P35222)
# Procedure Summary: fluorescence polarization competition; full-length beta-catenin, competitor 5FAM-TCF4 10-53
Starred links: 1 amine or outer side, 2 acyl side, 3 side chain; linkers in the order of their positions; H or OH if unused. Positions of bridges follow the written chain, without caps; N, C: chain ends. Non-standard residues stand in square brackets, D forms with d. Primed or numbered codes have the meaning given here. PyrS2″ = (S)-3-amino-1-((pent-4-en-1-yloxy)carbonyl)pyrrolidine-3-carboxylic acid (stapling residue), C=CCCCOC(=O)N1CC[C@@](N[*:1])(C(=O)[*:2])C1; B5(4) = 2,2-bis(4-pentenyl)glycine = 2-amino-2-(pent-4-en-1-yl)hept-6-enoic acid (stitching residue), C=CCCCC(CCCC=C)(N[*:1])C(=O)[*:2]; B5(5) = 2,2-bis(4-pentenyl)glycine, 2-amino-2-(pent-4-en-1-yl)hept-6-enoic acid (stitching residue), C=CCCCC(CCCC=C)(N[*:1])C(=O)[*:2]; Phe(2-Cl) = N[C@@H](Cc1ccccc1Cl)C(=O)O; Phe(2-F) = N[C@@H](Cc1ccccc1F)C(=O)O; Bta = N[C@@H](Cc1csc2ccccc12)C(=O)O; αAllylPro = C=CC[C@@]1(C(=O)O)CCCN1; tBuAla = CC(C)(C)C[C@H](N)C(=O)O; Cha = N[C@@H](CC1CCCCC1)C(=O)O; S8 = C=CCCCCCC[C@](C)(N)C(=O)O
Parameter: pIC50
Scale for pIC50: -log10 of concentration given in mol/L; no unit attached.

See these solved cases before continuing.
Ac-[αAllylPro]D[Cha][B5(4)]DEAAFN[S8]F[Bta]-NH2 (staple 1-4, 4-11) [I-626]: 5.30
Ac-[αAllylPro]D[tBuAla][B5(5)]DNAAFT[PyrS2″][Phe(2-F)][Bta]Q-NH2 (staple 1-4, 4-11) [I-1022]: 7.48

Request: Could you please provide reported pIC50 for Ac-[αAllylPro]D[tBuAla][B5(5)]DDAAFL[PyrS2″][Phe(2-Cl)][Bta][dT]-NH2 (staple 1-4, 4-11) [I-1035] ? Thanks!
Result: 7.68
